These data points were gathered from patent US8017792B2.

assayed_target: Human SGLT2 (Homo sapiens, UniProt P31639)
Sequence (P31639 whole entry): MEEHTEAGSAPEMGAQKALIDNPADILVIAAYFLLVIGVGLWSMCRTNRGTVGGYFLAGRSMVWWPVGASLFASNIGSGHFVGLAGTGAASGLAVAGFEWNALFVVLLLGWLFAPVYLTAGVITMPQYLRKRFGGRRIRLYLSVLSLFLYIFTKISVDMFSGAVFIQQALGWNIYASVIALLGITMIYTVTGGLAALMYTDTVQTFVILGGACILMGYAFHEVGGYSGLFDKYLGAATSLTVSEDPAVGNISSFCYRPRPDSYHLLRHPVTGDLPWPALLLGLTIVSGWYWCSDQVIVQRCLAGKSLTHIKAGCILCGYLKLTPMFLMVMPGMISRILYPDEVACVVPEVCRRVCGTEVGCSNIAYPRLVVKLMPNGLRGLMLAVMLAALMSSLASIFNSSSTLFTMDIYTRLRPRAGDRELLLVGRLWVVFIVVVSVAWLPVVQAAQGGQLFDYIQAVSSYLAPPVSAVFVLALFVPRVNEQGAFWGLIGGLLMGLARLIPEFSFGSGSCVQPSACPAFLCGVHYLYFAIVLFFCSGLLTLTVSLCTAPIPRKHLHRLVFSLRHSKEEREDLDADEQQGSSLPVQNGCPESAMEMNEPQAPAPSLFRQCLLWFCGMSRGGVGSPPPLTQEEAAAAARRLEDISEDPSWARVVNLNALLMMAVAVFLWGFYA
method_summary: Sodium-dependent sugar uptake inhibition test in CHO-K1 cells stably expressing human SGLT2 (Test Example 2)
run_conditions: CHO-K1 cells, [14C]methyl-α-D-glucopyranoside 1 mM, 37° C., one hour
Please go through the items and note down their pIC50.
Scale explanation: pIC50 corresponds to minus log10 of a concentration expressed in moles per litre.

Reported pIC50 of CCOc1ccc(Cc2cc([C@@H]3S[C@H](CO)[C@@H](O)[C@H](O)[C@H]3O)ccc2C)cc1 : 7.22

Reported pIC50 of COc1ccc(Cc2cc3ccccc3s2)cc1[C@@H]1S[C@H](CO)[C@@H](O)[C@H](O)[C@H]1O : 5.67

Reported pIC50 of CCOc1ccc(Cc2cc([C@@H]3S[C@H](CO)[C@@H](O)[C@H](O)[C@H]3O)ccc2Cl)cc1 : 7.10

Reported pIC50 of Cc1ccc(Cc2cc([C@@H]3S[C@H](CO)[C@@H](O)[C@H](O)[C@H]3O)ccc2Cl)cc1 : 7.52

Reported pIC50 of OC[C@H]1S[C@@H](c2ccc(Cl)c(Cc3cc4ccccc4s3)c2)[C@H](O)[C@@H](O)[C@@H]1O : 6.85

Reported pIC50 of OC[C@H]1S[C@@H](c2cccc(Cc3ccc(-c4ccccc4)s3)c2)[C@H](O)[C@@H](O)[C@@H]1O : 5.54

Reported pIC50 of CCOc1ccc(Cc2cc([C@@H]3S[C@H](CO)[C@@H](O)[C@H](O)[C@H]3O)ccc2Cl)cc1F : 6.77

Reported pIC50 of COc1cc(Cl)c(Cc2ccc(C(C)C)cc2)cc1[C@@H]1S[C@H](CO)[C@@H](O)[C@H](O)[C@H]1O : 7.16

Reported pIC50 of CCOc1ccc(Cc2ccc(OC)c([C@@H]3S[C@H](CO)[C@@H](O)[C@H](O)[C@H]3O)c2)cc1 : 5.98

Reported pIC50 of CCOc1ccc(Cc2cc([C@@H]3S[C@H](CO)[C@@H](O)[C@H](O)[C@H]3O)ccc2F)cc1 : 6.22

---

Please go through the items and note down their melting point.

Reported melting point of COc1ccc(Cc2cc3ccccc3s2)cc1[C@@H]1S[C@H](CO)[C@@H](O)[C@H](O)[C@H]1O [Compound 130] : 97.5 to 98 °C

Reported melting point of CCOc1ccc(Cc2cc([C@@H]3S[C@H](COCc4ccccc4)[C@@H](OCc4ccccc4)[C@H](OCc4ccccc4)[C@H]3OCc3ccccc3)ccc2Cl)cc1 [Compound 3] : 126 to 128 °C

Reported melting point of CCOc1ccc(Cc2cc([C@@H]3S[C@H](CO)[C@@H](O)[C@H](O)[C@H]3O)ccc2Cl)cc1F [Compound 84] : 73 to 81 °C

---

assayed_target: Human SGLT1 (Homo sapiens, UniProt P13866)
Sequence (P13866 1-664): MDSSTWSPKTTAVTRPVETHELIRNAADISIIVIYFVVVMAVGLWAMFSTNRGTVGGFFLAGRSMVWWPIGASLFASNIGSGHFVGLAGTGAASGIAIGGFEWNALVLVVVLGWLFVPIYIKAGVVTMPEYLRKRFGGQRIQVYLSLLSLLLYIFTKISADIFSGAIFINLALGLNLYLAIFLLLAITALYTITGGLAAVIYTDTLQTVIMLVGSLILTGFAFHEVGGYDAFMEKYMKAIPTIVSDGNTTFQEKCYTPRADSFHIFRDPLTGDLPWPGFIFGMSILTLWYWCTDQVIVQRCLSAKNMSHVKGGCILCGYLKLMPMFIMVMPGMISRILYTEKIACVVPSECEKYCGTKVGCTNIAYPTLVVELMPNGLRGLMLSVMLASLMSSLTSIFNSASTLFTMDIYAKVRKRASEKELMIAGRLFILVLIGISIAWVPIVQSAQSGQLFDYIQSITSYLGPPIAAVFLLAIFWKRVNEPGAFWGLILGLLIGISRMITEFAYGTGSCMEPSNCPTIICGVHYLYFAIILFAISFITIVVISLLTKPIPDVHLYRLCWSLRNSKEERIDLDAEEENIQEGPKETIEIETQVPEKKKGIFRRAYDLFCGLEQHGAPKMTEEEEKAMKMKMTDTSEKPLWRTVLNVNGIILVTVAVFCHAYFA
method_summary: Sodium-dependent sugar uptake inhibition test in CHO-K1 cells stably expressing human SGLT1 (Test Example 2)
run_conditions: [14C]methyl-α-D-glucopyranoside 0.1 mM, 37° C., 30 minutes
pIC50: −log10 of the molar value.
Where pIC50 equals or exceeds 6, the correct label is label 1; where it does not, the label is label 0.

Req: Is reported pIC50 greater than or equal to 6 here: OC[C@H]1S[C@@H](c2cccc(Cc3cc4ccccc4s3)c2)[C@H](O)[C@@H](O)[C@@H]1O
Resp: label 0

Req: Is reported pIC50 greater than or equal to 6 here: CCc1ccc(Cc2cccc([C@@H]3S[C@H](CO)[C@@H](O)[C@H](O)[C@H]3O)c2)cc1
Resp: label 0

Req: Is reported pIC50 greater than or equal to 6 here: CCOc1ccc(Cc2cc([C@@H]3S[C@H](CO)[C@@H](O)[C@H](O)[C@H]3O)ccc2F)cc1
Resp: label 0

Req: Is reported pIC50 greater than or equal to 6 here: CCOc1ccc(Cc2cc([C@@H]3S[C@H](CO)[C@@H](O)[C@H](O)[C@H]3O)c(O)cc2O)cc1
Resp: label 0

Req: Is reported pIC50 greater than or equal to 6 here: COc1ccc(Cc2cc([C@@H]3S[C@H](CO)[C@@H](O)[C@H](O)[C@H]3O)ccc2Cl)cc1
Resp: label 1

Req: Is reported pIC50 greater than or equal to 6 here: CCOc1ccc(Cc2cc([C@@H]3S[C@H](CO)[C@@H](O)[C@H](O)[C@H]3O)ccc2OC)cc1
Resp: label 0

Req: Is reported pIC50 greater than or equal to 6 here: CCOc1ccc(Cc2ccc(OC)c([C@@H]3S[C@H](CO)[C@@H](O)[C@H](O)[C@H]3O)c2)cc1
Resp: label 0

Req: Is reported pIC50 greater than or equal to 6 here: CCOc1ccc(Cc2cc([C@@H]3S[C@H](CO)[C@@H](O)[C@H](O)[C@H]3O)ccc2Cl)c(F)c1
Resp: label 0

Req: Is reported pIC50 greater than or equal to 6 here: OC[C@H]1S[C@@H](c2ccc(Cl)c(Cc3cc4ccccc4s3)c2)[C@H](O)[C@@H](O)[C@@H]1O
Resp: label 1

Req: Is reported pIC50 greater than or equal to 6 here: COc1ccc(Cc2cc3ccccc3s2)cc1[C@@H]1S[C@H](CO)[C@@H](O)[C@H](O)[C@H]1O
Resp: label 0

Req: Is reported pIC50 greater than or equal to 6 here: CCOc1ccc(Cc2cc([C@@H]3S[C@H](CO)[C@@H](O)[C@H](O)[C@H]3O)c(OC)cc2OC)cc1
Resp: label 0

Req: Is reported pIC50 greater than or equal to 6 here: COc1cc(Cl)c(Cc2ccc(C(C)C)cc2)cc1[C@@H]1S[C@H](CO)[C@@H](O)[C@H](O)[C@H]1O
Resp: label 0

Req: Is reported pIC50 greater than or equal to 6 here: CCc1ccc(Cc2cc([C@@H]3S[C@H](CO)[C@@H](O)[C@H](O)[C@H]3O)c(OC)cc2Cl)cc1
Resp: label 0

Req: Is reported pIC50 greater than or equal to 6 here: CCc1ccc(Cc2cc([C@@H]3S[C@H](CO)[C@@H](O)[C@H](O)[C@H]3O)c(OC)cc2C)cc1
Resp: label 0

Req: Is reported pIC50 greater than or equal to 6 here: CSc1ccc(Cc2cc([C@@H]3S[C@H](CO)[C@@H](O)[C@H](O)[C@H]3O)ccc2Cl)cc1
Resp: label 1

Req: Is reported pIC50 greater than or equal to 6 here: COc1cc(OC)c([C@@H]2S[C@H](CO)[C@@H](O)[C@H](O)[C@H]2O)cc1Cc1cc2ccccc2s1
Resp: label 0

Req: Is reported pIC50 greater than or equal to 6 here: CC(C)c1ccc(Cc2cc([C@@H]3S[C@H](CO)[C@@H](O)[C@H](O)[C@H]3O)ccc2Cl)cc1
Resp: label 0

Req: Is reported pIC50 greater than or equal to 6 here: CCOc1ccc(Cc2cc([C@@H]3S[C@H](CO)[C@@H](O)[C@H](O)[C@H]3O)c(O)cc2C)cc1
Resp: label 1
